METHOD_DESCRIPTION: Leishmania major promastigote growth inhibition, primary screen (AID 1063);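 note: promastigotes grown with compound for 44 hours at 28 °C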
CONDITION_PARAMETERS: Leishmania major promastigotes, resazurin fluorescence viability; at 10 µM
Hit rate of the full screen: of about 200,000 compounds, about 18,000 (9%) were called active. Cut-off read from the data, not from the text of the source: active = inhibition above about 50%; inactive = the rest. The sample holds actives, similar compounds and a random draw of the others, so the mix is not that of the screen.
Return exactly one item of 1 (yes) for active, 0 (no) for inactive

(Q) // outcome(item) with item = O=C(CSc1nn(-c2ccc(F)cc2)c(=S)s1)NC1CCS(=O)(=O)C1 (configuration not stated)
(A) 0 (no)

(Q) Returns: the outcome recorded for "c1ccc2c(c1)C(=NC1CCCCC1)NC2=NC1CCCCC1" in this assay.
(A) 1 (yes)

(Q) Please share the test call associated with "Cc1cccc(C(=O)Nc2ccccc2C(=O)NCc2cccnc2)c1" .
(A) 0 (no)

(Q) Outcome logged for CCC(c1nnnn1C1CCCC1)N(Cc1cccs1)Cc1cc2cccc(C)c2[nH]c1=O (configuration not stated) in this assay:
(A) 0 (no)

(Q) Recorded test call requested for COc1ccccc1C(c1nnnn1C(C)(C)C)N1CCN(Cc2ccccc2)CC1 (configuration not stated)
(A) 0 (no)

(Q) Check the results log: what was the call for "O=C(COC(=O)/C=C/c1cccc(Cl)c1)NCCc1ccccc1" ?
(A) 1 (yes)

(Q) I would be grateful if you could indicate the recorded call for Cc1cc(C)c2cc(CN(Cc3cccs3)Cc3nnnn3CC3CCCO3)c(=O)[nH]c2c1 (configuration not stated) .
(A) 0 (no)

(Q) Recorded test outcome, item "O=C(CCC(=O)N1CCCC1)Nc1ccc([N+](=O)[O-])cc1"
(A) 0 (no)

(Q) Hi, do you know how "COC(=O)c1cc2n(n1)CCCNC2=O" came out in this test?
(A) 0 (no)

(Q) // return assay outcome for "CN(C)/C=C(/C(=O)c1ccc(F)cc1)S(=O)(=O)c1ccc(F)cc1"
(A) 0 (no)

(Q) Per the records of this test, what outcome belongs to COc1cccc(NC(=O)CC(c2ccc(OC(C)C)cc2)c2ccccc2OC)c1 (configuration not stated) ?
(A) 0 (no)

(Q) Look up the recorded call for Cc1cc2cc(CN(Cc3cccs3)Cc3nnnn3CC3CCCO3)c(=O)[nH]c2cc1C (configuration not stated) in this test.
(A) 0 (no)

(Q) I would be grateful if you could indicate the recorded call for "S=c1nc(C23CC4CC(CC(C4)C2)C3)nc2sccn12" .
(A) 0 (no)

(Q) For this compound, state the assay outcome: CCCC(c1nnnn1C(C)(C)C)N1CCN(Cc2ccccc2)CC1 (configuration not stated)
(A) 0 (no)

(Q) Hi, sorry to bother you, what did the test record for "CC(=O)Cn1ncc(N2CCOCC2)c(Br)c1=O" ?
(A) 0 (no)

(Q) Recorded test outcome, item "CS/C(=C\[N+](=O)[O-])Nc1ccc(C)cc1"
(A) 0 (no)

(Q) GET /call?item= "Cc1cccc2cc(CN(Cc3nnnn3Cc3ccccc3)C3CCCC3)c(=O)[nH]c12" returns the recorded outcome of this test.
(A) 0 (no)

(Q) Record lookup: outcome of this test for "COc1ccc(CCNC(=O)COC(=O)/C=C/c2cccs2)cc1OC" ?
(A) 0 (no)

(Q) Any idea what this test logged for "C=CCn1cc(C(=O)NCc2ccc(Cl)cc2)c(=O)c2cc(S(=O)(=O)N(CC)CC)ccc21" ?
(A) 0 (no)

(Q) Please state the recorded outcome for this compound: "CN(CC(=O)Nc1ccccc1F)CC(=O)Nc1ccccc1Br"
(A) 0 (no)

(Q) What did this assay record as the result for Cc1cccc2cc(CN(Cc3cccs3)C(c3nnnn3C3CCCC3)C(C)C)c(=O)[nH]c12 (configuration not stated) ?
(A) 1 (yes)

(Q) Test call for this compound, please: "COC(=O)CSc1nccc(-c2cccs2)n1"
(A) 0 (no)
